Tested on: A498 renal
experimental-protocol: NCI tumour cell line growth inhibition, 48 h
measured-endpoint: TGI (µM)
A number alone suffices; assume µM.

The examples below pair each entry with its known result.
compound	endpoint-unit	TGI
COc1cc(C2c3cc4c(cc3OC(NNS(=O)(=O)c3ccc(C)cc3)C2C)OCO4)cc(OC)c1OC (centres undefined)	µM	5.69
COc1ccc(C2=[S+]C(c3ccccc3)(c3ccccc3)c3ccccc32)cc1	µM	44.6
CN(C)CCCOc1cccc(NC2=C(Cl)C(=O)C(Nc3cccc(OCCCN(C)C)c3)=C(Cl)C2=O)c1	µM	3.01
COC1(C2c3ccccc3CCN2C(=O)OC(C)(C)C)C(=O)C(c2ccccc2)=C1N(C)C (centres undefined)	µM	62.6
CC(O)c1cc2c(s1)C(=O)c1c(C(C)O)csc1C2=O (centres undefined)	µM	0.462

Kindly review the next compound as well.
Recorded TGI of c1ccc(-c2nc3n(c2-c2ccc4c(c2)OCO4)CCC3)nc1 , please. 20.6

###

Tested on: MDA-MB-231 breast
experimental-protocol: NCI tumour cell line growth inhibition, 48 h
measured-endpoint: GI50

compound	GI50
O=C(Nc1cccc2[nH]c(C(F)(F)F)nc12)c1cc(Cl)ccc1Cl	2430 nM
CCOC(=O)c1ccc(NC(=O)NC2=NCCS2)cc1	1640 nM

Next:
State its GI50 on MDA-MB-231 breast: COc1ccc(C2=NC(=O)NC2c2ccc(OC)cc2)cc1 (stereo not drawn) 12300 nM

###

Test system: LOX IMVI melanoma
experimental-protocol: NCI tumour cell line growth inhibition, 48 h
Each item that follows carries a reported TGI.

Give the reported TGI for Cn1cc(-c2cc(-c3cn(C)c4ccc(Cl)cc34)[nH]n2)c2cc(Cl)ccc21 (system: LOX IMVI melanoma). 3.8 µM

###

Tested on: UACC-62 melanoma
experimental-protocol: NCI tumour cell line growth inhibition, 48 h; in the data active means GI50 below about 0.43 µM; inactive means the rest
Hi! Could you answer with just one of these? Y = active, N = inactive

A selection of reference data follows.
compound	answer-label
COc1cccc(CNc2ncnc3c2ncn3C2OC(CO)C(O)C2O)c1O (stereo unspecified)	Y
O=C(Nc1cccc2[nH]c(C(F)(F)F)nc12)c1cc(Cl)ccc1Cl	N
CCCN(CCC)c1ccc(C=O)c(Cl)c1	Y
COc1cc(OC)c2sc(-c3ccc(-n4cncc4-c4ccc(OC)c(OC)c4)cc3)nc2c1	N
CN(Cc1ccc(F)cc1)c1ccc(CO)c(Cl)c1	Y

For the next question, use this compound.
// param item: Cn1cc(-c2cc(-c3cn(C)c4ccc(Cl)cc34)[nH]n2)c2cc(Cl)ccc21 ; yields the recorded call N

###

System: RXF 393 renal
experimental-protocol: NCI tumour cell line growth inhibition, 48 h; in the data active means GI50 below about 0.43 µM; inactive means the rest
Select the correct class. Options are yes for active, no for inactive and nothing else.

Check out these entries, answers already filled in.
molecule	answer-label
CCn1cc(/C=C2\Oc3cc(OCC#N)ccc3C2=O)c2cc(OC)ccc21	yes
Cc1cc(N/N=C/c2nc(-c3ccc(Cl)cc3)oc2C)c2cc(Br)ccc2n1	no
COc1ccc(-c2c(C#N)c(N)nc(N3CCOCC3)c2C#N)cc1	no
CCSc1ccc([C@@H]2[C@@H](O)C(=O)N2c2cc(OC)c(OC)c(OC)c2)cc1	yes
C=C1C(=O)O[C@H]2[C@H]1CC/C(COC(=O)N[C@H]1C[C@H](O[C@H]3C[C@](O)(C(=O)CO)Cc4c(O)c5c(c(O)c43)C(=O)c3c(OC)cccc3C5=O)O[C@@H](C)[C@H]1O)=C\CC[C@@]1(C)O[C@@H]21	no
COc1cccc(CNc2ncnc3c2ncn3C2OC(CO)C(O)C2O)c1O (stereo not drawn)	yes

For Cn1c(=O)n(C)c2cc(CNCCNc3ccnc4cc(Cl)ccc34)ccc21 , what call appears in the results of this test? no

// repeat for O=C(CC1(O)C(=O)Nc2ccc(F)cc21)c1ccc(C(=O)NCC2CCC3(CC2)OOC2(CCCCC2)OO3)cc1 (stereo not drawn) and report no

###

Tested on: SNB-19 CNS
experimental-protocol: NCI tumour cell line growth inhibition, 48 h
measured-endpoint: TGI (µM)
Please reply with the bare figure in µM and do not write the unit itself.

molecule	observed-result
CCOC(=O)C(=CNc1ccc(N(C2=NCC(C)S2)c2ccc(F)c(Cl)c2)cc1)C(=O)OCC (stereo not given)	54.5

Fill in the blank: the reported TGI of CCCC1(CN2c3ccccc3Sc3ccc(Cl)cc32)CCN(CC)C1 (stereo not given) is ____. 3.78

###

Tested on: HS 578T breast
experimental-protocol: NCI tumour cell line growth inhibition, 48 h
measured-endpoint: TGI

compound	system-name	observed-result
O=Cc1ccc(OC[C@H]2COC(=O)N2)cc1	HS 578T breast	> 100 µM

Please turn your attention to the following entry.
Quick one: TGI of N#[N+]c1c([O-])c2ccccc2c2ccccc12 ? > 100 µM

###

Tested on: KM12 colon
experimental-protocol: NCI tumour cell line growth inhibition, 48 h
measured-endpoint: TGI (µM)
State just the number; it will be interpreted in µM.

Worked examples follow.
molecule	TGI [µM]
CC(C)(C)OC(=O)N1NC(c2ccccc2)CC1c1ccccc1 (stereo not given)	41.9
COc1ccc2c(c1)CN([C@@H](C)[C@H]1CC[C@H]3[C@@H]4CC[C@H]5C[C@@H](O)CC[C@]5(C)[C@H]4CC[C@]13C)CO2	4.31
O=c1oc(-c2ccc(O)cc2)cc2cc(O)ccc12	68

Proceeding to the next molecule to report its TGI.
Record request: TGI value, item CCCCCCCCC/C=C1/CC(CO)(COC(=O)CC(C(C)C)C(C)C)OC1=O (stereo not given) 23.1

###

// reported TGI per item
Test system: DU-145 prostate
experimental-protocol: NCI tumour cell line growth inhibition, 48 h
# output: bare number, implied unit µM

compound	TGI / µM
CC(NC(=O)Cc1ccc(C(F)(F)P(=O)(OCc2ccc([N+](=O)[O-])o2)N(C)CCCCCl)cc1)c1ccc(OCC2CCCCC2)c(C(N)=O)c1 (centres undefined)	16.7
Oc1ccc(/C=C/c2cccc(/C=C/c3ccc(O)c(O)c3)n2)cc1O	20.6

// returns reported TGI for input COc1ccc2oc(S(=O)(=O)N3CC(CCl)c4ccc(N)cc43)cc2c1 (centres undefined) 0.515

O=C(CC1(O)C(=O)Nc2ccc(F)cc21)c1ccc(C(=O)NCC2CCC3(CC2)OOC2(CCCCC2)OO3)cc1 (centres undefined) , same question. 12.2

###

Tested on: HCC-2998 colon
experimental-protocol: NCI tumour cell line growth inhibition, 48 h
Classify as follows. Reported TGI greater than or equal to 30 µM: 1.0. Reported TGI below: 0.0.

compound	answer-label
Cc1ccc(S(=O)C[C@](NC(=O)OCc2ccccc2)(Sc2ccccc2)C(F)F)cc1 (stereo partly drawn)	1.0
CCn1cc(/C=C2\Oc3cc(OCC#N)ccc3C2=O)c2cc(OC)ccc21	1.0
Cc1ccc(-c2c(-c3ccccc3)[nH]c(C)c2C(=O)ONC(=O)c2ccccc2)cc1	0.0
N#[N+]c1c([O-])c2ccccc2c2ccccc12	1.0
Cc1ccc(S(=O)(=O)c2nc(-c3ccccc3)oc2S(C)(=O)=O)cc1	1.0

Determine whether measured TGI meets or exceeds 30 µM for C[C@@H](C[C@H]1OC(C)(C)O[C@@H]1C(C)(C)O)[C@H]1CC=C2[C@]3(C)[C@H](O)C[C@H]4C(C)(C)[C@H](O)CC[C@]4(C)[C@H]3CC[C@]21C 0.0

Repeat with Cc1cn(-c2cccc(NC(=O)c3ccc(C)c(Nc4nccc(-c5cccnc5)n4)c3)c2)cn1 0.0

Ok, now C1=Cc2nc1c(-c1ccccc1)c1ccc([nH]1)c(-c1ccccc1)c1nc(c(-c3ccccc3)c3ccc([nH]3)c2-c2ccccc2)C=C1 1.0

###

Test system: RXF 393 renal
experimental-protocol: NCI tumour cell line growth inhibition, 48 h
Decision: TGI compared against 6 µM; not below it gives criterion met, below it gives criterion not met.

compound	answer-label
O=C(c1ccc2ccccc2c1)c1nc2cc(F)ccc2[n+]([O-])c1C(F)(F)F	criterion met
O=c1[nH]ncc2[nH]c3c4ccccc4ccc3c12	criterion met
COc1cc(F)ccc1-c1cc(Nc2cc(CS(C)(=N)=O)ccn2)ncc1F (stereo not drawn)	criterion not met

In the following, a different compound is considered.
Is reported TGI greater than or equal to 6 µM here: c1ccc2cc3c(NC4=NCCO4)cccc3cc2c1 criterion met

###

Test system: MCF7 breast
experimental-protocol: NCI tumour cell line growth inhibition, 48 h
Below: a set of entries, each annotated with reported TGI.

compound	TGI
C=C1C(=O)O[C@H]2[C@H]1CC/C(COC(=O)N[C@H]1C[C@H](O[C@H]3C[C@](O)(C(=O)CO)Cc4c(O)c5c(c(O)c43)C(=O)c3c(OC)cccc3C5=O)O[C@@H](C)[C@H]1O)=C\CC[C@@]1(C)O[C@@H]21	9.86 µM
C1CCCCC2(CCCCCCCCC3(CCC1)SCCS3)SCCS2	> 100 µM
COc1ccc2oc(S(=O)(=O)N3CC(CCl)c4ccc(N)cc43)cc2c1 (stereo not drawn)	> 58.6 µM
CC12CCCCC1=C(F)C(F)(F)S2 (stereo not drawn)	> 79.6 µM
CC(C)(C)[Si](C)(C)OC1[C@@H](CNC(N)=O)O[C@@H](n2cnc3c(NC(=O)Nc4ccccc4)ncnc32)[C@H]1O[Si](C)(C)C(C)(C)C (stereo partly drawn)	8.51 µM

What value of TGI has been recorded for this entry: CN(C)N1C(=O)SCC(c2ccccc2)(c2ccccc2)C1=O > 100 µM

Likewise for COC(=O)CCC1(CCC(=O)OC)CCCCCCC(CCC(=O)OC)(CCC(=O)OC)C(=O)C1=O ? > 100 µM

Try the compound CC(C)(C)C(=O)Oc1ccc(/C=C/C(=O)c2ccc(OC(=O)C(C)(C)C)cc2)cc1 > 100 µM
